- test-description: self-splicing fitness, log relative to wild type (ln ratio); higher = more splicing; Tetrahymena group I intron in knt gene, E. coli kanamycin selection, DiMSum; sequences stand for … in CUCUCU…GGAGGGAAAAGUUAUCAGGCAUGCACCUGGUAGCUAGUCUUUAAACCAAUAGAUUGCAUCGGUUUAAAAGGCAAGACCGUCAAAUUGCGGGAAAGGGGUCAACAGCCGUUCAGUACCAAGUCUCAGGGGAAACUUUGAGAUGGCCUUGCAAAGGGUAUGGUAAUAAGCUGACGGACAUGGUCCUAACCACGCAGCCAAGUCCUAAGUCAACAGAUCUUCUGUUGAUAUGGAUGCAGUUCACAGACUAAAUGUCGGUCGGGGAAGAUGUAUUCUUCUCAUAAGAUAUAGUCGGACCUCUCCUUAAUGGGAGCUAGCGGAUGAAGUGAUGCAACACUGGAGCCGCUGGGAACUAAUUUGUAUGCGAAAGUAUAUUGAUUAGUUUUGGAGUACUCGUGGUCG;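 note: selection with 25 µg/mL kanamycin versus none on LB agar overnight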
- conditions: 37 °C
Catalogue of self-splicing fitness (ln) readings, one per entry.
property-measured: self-splicing fitness (ln)

AGGAAGCAAUAUUACGUCCG : 0.408
UGGUAGCAAUAUUACGUAUA : -0.00881
CAUCAGCAAUAUUACGGCCU : -2.15
AUAUAGCAAUAUUACGGCUC : -0.144
CCGUAGCAAUAUUACGCCUU : -2.19
GCGCAGCAAUAUUACGCUUU : -0.38
AGUAAGCAAUAUUACGUGGA : -3.85
CUUGAGCAAUAUUACGUAGU : -2.11
ACCCAGCAAUAUUACGAUGU : -0.0583
AACUAGCAAUAUUACGCCAC : -1.79

###

- test-description: self-splicing fitness, log relative to wild type (ln ratio); higher = more splicing; Tetrahymena group I intron in knt gene, E. coli kanamycin selection, DiMSum; sequences stand for … in CUCUCU…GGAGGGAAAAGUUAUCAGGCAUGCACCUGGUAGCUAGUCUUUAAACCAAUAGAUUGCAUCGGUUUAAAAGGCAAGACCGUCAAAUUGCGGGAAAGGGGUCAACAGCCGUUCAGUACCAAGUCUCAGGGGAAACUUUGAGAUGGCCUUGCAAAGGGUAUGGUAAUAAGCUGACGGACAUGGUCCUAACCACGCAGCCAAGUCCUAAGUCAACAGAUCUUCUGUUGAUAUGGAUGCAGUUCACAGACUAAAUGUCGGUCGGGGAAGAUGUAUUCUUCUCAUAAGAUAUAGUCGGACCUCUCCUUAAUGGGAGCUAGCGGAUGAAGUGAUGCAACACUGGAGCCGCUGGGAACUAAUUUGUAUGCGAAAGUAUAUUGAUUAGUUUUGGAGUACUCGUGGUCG
- conditions: 37 °C
property-measured: self-splicing fitness (ln)

AACGAGCAAUAUUACGAUGU : -1.99
UGAGAGCAAUAUUACGGGGG : -1.99
AGCCAGCAAUAUUACGUCAU : -0.981
ACAAAGCAAUAUUACGUCGA : -1.02

###

Catalogue of self-splicing fitness (ln) readings, one per entry.
- test-description: self-splicing fitness, log relative to wild type (ln ratio); higher = more splicing; Tetrahymena group I intron in knt gene, E. coli kanamycin selection, DiMSum; sequences stand for … in CUCUCU…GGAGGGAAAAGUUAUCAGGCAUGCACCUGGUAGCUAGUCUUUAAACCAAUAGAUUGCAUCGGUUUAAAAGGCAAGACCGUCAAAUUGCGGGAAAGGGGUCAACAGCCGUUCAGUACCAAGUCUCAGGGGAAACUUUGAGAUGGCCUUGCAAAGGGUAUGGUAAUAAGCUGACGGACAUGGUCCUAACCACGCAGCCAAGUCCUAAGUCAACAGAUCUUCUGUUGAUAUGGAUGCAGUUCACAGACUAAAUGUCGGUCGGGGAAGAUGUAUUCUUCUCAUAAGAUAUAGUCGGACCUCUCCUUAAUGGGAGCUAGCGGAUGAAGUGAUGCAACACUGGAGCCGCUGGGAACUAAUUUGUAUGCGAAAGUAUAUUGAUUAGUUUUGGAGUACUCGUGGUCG
- conditions: 37 °C
property-measured: self-splicing fitness (ln)

UGUCAGCAAUAUUACGUCUA : -0.489
GAGAAGCAAUAUUACGUAUU : -3.08
CGUUAGCAAUAUUACGCAUC : -2.72
CCCUAGCAAUAUUACGAAGG : -2.71
GCGCAGCAAUAUUACGCCCU : 0.00379
GUCAAGCAAUAUUACGAUUU : -1.42
GGAGAGCAAUAUUACGUGUG : -3.29
ACGGAGCAAUAUUACGGUGG : -2.22
UAACAGCAAUAUUACGAGCC : -2.24
UAAUAGCAAUAUUACGCCAA : -2.37
UCUCAGCAAUAUUACGUAUU : -2
ACCUAGCAAUAUUACGACGG : -0.541
